assay target: A2A adenosine receptor (Sus scrofa, UniProt K9IW67)
Construct: from tissue; host or cells: pig striatum membranes
Sequence (K9IW67 1-409): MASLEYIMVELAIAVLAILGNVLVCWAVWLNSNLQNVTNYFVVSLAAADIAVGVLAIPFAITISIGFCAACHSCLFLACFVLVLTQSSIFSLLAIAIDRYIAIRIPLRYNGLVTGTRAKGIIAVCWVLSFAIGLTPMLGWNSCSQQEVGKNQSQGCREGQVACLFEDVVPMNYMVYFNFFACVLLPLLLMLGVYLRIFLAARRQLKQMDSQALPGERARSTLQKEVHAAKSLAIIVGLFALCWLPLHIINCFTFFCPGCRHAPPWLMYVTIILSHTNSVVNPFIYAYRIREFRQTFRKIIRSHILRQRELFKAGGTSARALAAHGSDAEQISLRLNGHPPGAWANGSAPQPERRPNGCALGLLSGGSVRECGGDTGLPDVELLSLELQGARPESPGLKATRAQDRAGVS
assay notes: Affinity for the A2A receptor in a pig striatum membrane prep (displacement of tritiated ZM 241385)
Assay type: binding
measurement setup: Table 3, compounds 1-7; pig striatal membranes, [3H]ZM 241385 2 nM, 23° C. 2h; Ki from IC50
The following compounds are shown together with reported Ki values.

Past entries and their recorded results:
Nc1nc(SCCCCO)nc2c1ncn2[C@@H]1O[C@H](CO)[C@@H](O)[C@H]1O = > 100000 nM
Nc1nc(SC2CCCC2)nc2c1ncn2[C@@H]1O[C@H](CO)[C@@H](O)[C@H]1O = > 10000 nM
Nc1nc(Sc2ccccc2)nc2c1ncn2[C@@H]1O[C@H](CO)[C@@H](O)[C@H]1O = > 10000 nM
CCCCCSc1nc(N)c2ncn([C@@H]3O[C@H](CO)[C@@H](O)[C@H]3O)c2n1 = > 10000 nM
Nc1nc(SCc2ccccc2)nc2c1ncn2[C@@H]1O[C@H](CO)[C@@H](O)[C@H]1O = 9540 nM

Attention now turns to another entry.
QUERY: # return Ki for Nc1nc(SCCCc2ccccc2)nc2c1ncn2[C@@H]1O[C@H](CO)[C@@H](O)[C@H]1O , test system: A2A adenosine receptor (Sus scrofa, UniProt K9IW67)
RESULT: > 10000 nM
